tested on: CCRF-CEM leukemia; assay: NCI-60 one-dose screen, 48 h (100 = growth as untreated, 0 = no growth, -100 = all killed); conditions: 10 µM
The panel holds about 83,000 compounds, 20% with a hit somewhere; the sample as a whole holds those more often.
Binary classification by growth, with 50% as an inclusive lower bound for yes (1); all other cases are no (0).

Problem: Answer whether growth of CCN(CC)CCN1c2nc3ccccc3cc2Sc2cc3ccccc3nc21 is greater than or equal to 50%.
Solution: no (0)

Further cases:
Problem: Answer whether growth of O=[N+]([O-])c1ccc(/C(=C/c2ccccc2)[n+]2ccccc2)cc1 is greater than or equal to 50%.
Solution: yes (1)

Problem: Answer whether growth of Cc1cc(C)nc(NS(=O)(=O)c2ccc(Nc3nc4nc(NCc5ccccc5)nc(-c5ccc(O)cc5)c4c(=O)[nH]3)cc2)n1 is greater than or equal to 50%.
Solution: no (0)

Problem: Answer whether growth of Cc1cc(Br)nnc1Br is greater than or equal to 50%.
Solution: yes (1)

Problem: Answer whether growth of CN(C)CCN(Cc1ccccc1)c1ccc2ccccc2n1 is greater than or equal to 50%.
Solution: yes (1)

Problem: Answer whether growth of O=C(CCC(C(=O)c1ccccc1)c1ccccc1)c1ccccc1 (configuration not stated) is greater than or equal to 50%.
Solution: no (0)
